molecular target: PI3K-alpha (Homo sapiens); experiment: PI3K-alpha fluorescence polarization assay; assay type: biochemical; settings: read-out: PI3Kα Avg. IC50
Sequence (P42336 whole entry, species assumed): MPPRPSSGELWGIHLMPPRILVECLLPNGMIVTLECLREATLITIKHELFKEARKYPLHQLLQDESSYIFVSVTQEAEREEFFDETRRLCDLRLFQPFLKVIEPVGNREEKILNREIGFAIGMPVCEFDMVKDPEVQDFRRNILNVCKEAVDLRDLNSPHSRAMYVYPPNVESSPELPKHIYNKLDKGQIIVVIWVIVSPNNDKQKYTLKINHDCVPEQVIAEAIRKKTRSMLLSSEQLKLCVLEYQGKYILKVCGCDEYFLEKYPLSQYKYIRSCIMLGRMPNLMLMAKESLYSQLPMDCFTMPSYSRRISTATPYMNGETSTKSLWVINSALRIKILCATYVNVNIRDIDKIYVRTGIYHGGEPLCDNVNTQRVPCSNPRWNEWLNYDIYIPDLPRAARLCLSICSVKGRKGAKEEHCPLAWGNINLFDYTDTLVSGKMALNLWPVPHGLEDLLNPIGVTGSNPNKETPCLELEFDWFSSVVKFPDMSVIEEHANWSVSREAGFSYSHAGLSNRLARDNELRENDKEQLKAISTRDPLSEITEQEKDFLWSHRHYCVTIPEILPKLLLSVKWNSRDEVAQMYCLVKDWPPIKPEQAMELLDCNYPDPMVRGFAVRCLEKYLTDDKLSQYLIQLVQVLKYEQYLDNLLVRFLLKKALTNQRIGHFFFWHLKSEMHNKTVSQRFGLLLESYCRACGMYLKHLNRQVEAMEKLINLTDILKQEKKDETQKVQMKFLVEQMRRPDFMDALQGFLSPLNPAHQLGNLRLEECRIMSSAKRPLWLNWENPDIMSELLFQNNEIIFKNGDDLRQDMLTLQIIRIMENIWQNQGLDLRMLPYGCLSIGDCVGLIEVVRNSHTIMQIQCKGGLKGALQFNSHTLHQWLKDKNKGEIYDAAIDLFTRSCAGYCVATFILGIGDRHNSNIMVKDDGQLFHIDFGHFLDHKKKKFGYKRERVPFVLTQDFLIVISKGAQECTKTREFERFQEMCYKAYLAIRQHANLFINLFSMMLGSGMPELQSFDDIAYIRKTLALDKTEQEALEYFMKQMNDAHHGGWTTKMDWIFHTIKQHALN
Sequence (P27986 whole entry partner, species assumed): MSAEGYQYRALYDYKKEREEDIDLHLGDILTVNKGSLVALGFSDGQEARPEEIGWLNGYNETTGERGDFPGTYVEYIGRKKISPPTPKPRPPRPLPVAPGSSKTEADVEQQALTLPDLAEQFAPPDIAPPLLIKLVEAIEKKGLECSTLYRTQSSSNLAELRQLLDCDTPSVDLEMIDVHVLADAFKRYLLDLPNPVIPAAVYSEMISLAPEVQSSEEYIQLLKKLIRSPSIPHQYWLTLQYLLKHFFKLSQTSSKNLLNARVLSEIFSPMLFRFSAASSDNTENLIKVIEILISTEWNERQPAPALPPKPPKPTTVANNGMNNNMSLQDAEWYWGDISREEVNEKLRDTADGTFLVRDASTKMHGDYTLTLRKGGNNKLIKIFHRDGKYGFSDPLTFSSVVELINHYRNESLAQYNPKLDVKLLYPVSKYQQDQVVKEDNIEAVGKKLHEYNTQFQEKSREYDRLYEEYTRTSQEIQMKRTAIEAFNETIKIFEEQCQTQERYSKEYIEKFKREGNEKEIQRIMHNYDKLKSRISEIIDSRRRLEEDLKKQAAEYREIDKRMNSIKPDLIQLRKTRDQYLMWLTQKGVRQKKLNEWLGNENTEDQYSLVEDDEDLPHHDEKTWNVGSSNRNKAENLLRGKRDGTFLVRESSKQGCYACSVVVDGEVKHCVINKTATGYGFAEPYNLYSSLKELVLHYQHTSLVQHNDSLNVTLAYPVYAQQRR
pIC50: −log10 of the molar value.
Assay endpoint: pIC50

O=C1C(=Cc2c[nH]c3ccc([N+](=O)[O-])cc23)Oc2cc(O)cc(O)c21 | 5.83
COc1ccc2[nH]cc(CC3Oc4cc(O)cc(O)c4C3=O)c2c1 (centres unmarked) | 5.73
Cn1cc(C=C2Oc3cc(O)cc(O)c3C2=O)c2c(O)cccc21 | 5.78

[a] COc1ccc2[nH]c(C)c(C=C3Oc4cc(O)cc(O)c4C3=O)c2c1
[b] COc1cc2c(C=C3Oc4cc(O)cc(O)c4C3=O)c(C)[nH]c2cc1C
[c] Cn1cc(/C=C2\Oc3cc(O)cc(O)c3C2=O)c2c(-c3ccccc3F)cccc21
[d] N#Cc1cccc2[nH]cc(C=C3Oc4cc(O)cc(O)c4C3=O)c12
[e] COc1ccc2c(c1)c(C=C1Oc3cc(O)cc(O)c3C1=O)c(C)n2CCN1CCN(CCO)CC1
**Q:** Arrange these 5 molecules in increasing order of pIC50. Form field (ranking): labels in requested order.
**A:** d, c, b, e, a
